protocol.details: Particle size and surface potential of siRNA MENDs prepared by t-BuOH injecting method
Format: physicochemical
applied.conditions: siRNA MEND, cationic lipid/cholesterol=70/30, DMG-PEG2000 3%
assay.readout: size (nm)
Enter your answer as a number in nm; do not include the unit.

Request: Entry Cc1c(C)c2c(c(C)c1OC(=O)CCC(=O)OCC1CCCN(CCSSCCN3CCCC(COC(=O)CCC(=O)Oc4c(C)c(C)c5c(c4C)CCC(C)(CCCC(C)CCCC(C)CCCC(C)C)O5)C3)C1)CCC(C)(CCCC(C)CCCC(C)CCCC(C)C)O2 (stereo not drawn) : reported size (nm) = ?
Result: 118

Request: Another compound to look at: Cc1c(C)c2c(c(C)c1OC(=O)CCC(=O)OCCCC1CCN(CCSSCCN3CCC(CCCOC(=O)CCC(=O)Oc4c(C)c(C)c5c(c4C)CCC(C)(CCCC(C)CCCC(C)CCCC(C)C)O5)CC3)CC1)CCC(C)(CCCC(C)CCCC(C)CCCC(C)C)O2 (stereo not drawn)
Result: 123

Moving on to another compound below.
Request: Entry CCN(CCCCOC(=O)CCC(=O)Oc1c(C)c(C)c2c(c1C)CCC(C)(CCCC(C)CCCC(C)CCCC(C)C)O2)CCSSCCN(CC)CCCCOC(=O)CCC(=O)Oc1c(C)c(C)c2c(c1C)CCC(C)(CCCC(C)CCCC(C)CCCC(C)C)O2 (stereo not drawn) : reported size (nm) = ?
Result: 118
